ASSAYED TARGET: PCSK9 (Homo sapiens, UniProt Q8NBP7)
Construct: biotin (biotinylated); purchased
Sequence (Q8NBP7 153-692): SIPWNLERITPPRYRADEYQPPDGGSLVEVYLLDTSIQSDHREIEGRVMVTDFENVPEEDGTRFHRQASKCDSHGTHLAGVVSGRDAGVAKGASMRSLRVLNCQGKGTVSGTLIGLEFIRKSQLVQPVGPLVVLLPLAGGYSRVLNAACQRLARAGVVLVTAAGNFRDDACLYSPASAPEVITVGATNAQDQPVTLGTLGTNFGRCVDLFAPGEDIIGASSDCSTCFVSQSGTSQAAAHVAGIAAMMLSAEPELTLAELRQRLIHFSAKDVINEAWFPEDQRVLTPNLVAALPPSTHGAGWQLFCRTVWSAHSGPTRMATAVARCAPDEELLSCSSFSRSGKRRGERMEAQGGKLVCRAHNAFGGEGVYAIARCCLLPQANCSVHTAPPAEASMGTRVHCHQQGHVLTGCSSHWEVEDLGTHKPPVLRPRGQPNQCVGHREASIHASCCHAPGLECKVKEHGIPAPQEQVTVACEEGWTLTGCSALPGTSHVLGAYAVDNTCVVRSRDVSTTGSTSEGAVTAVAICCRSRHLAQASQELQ
TEST NAME: PCSK9 Alexa FRET Plus TR-FRET assay
Assay type: binding
pKi: −log10 of the molar value.
Task for the reader: assign each of the following compounds its reported pKi.

Below are worked cases with known answers.
Ask: Output measured pKi for this item: COc1ccc(C[C@@H]2NC(=O)[C@H]([C@@H](C)O)NC(=O)[C@@H]3[C@@H]4CCN3C(=O)[C@@H]3Cc5cn(c6ccc(F)cc56)CCCCCCN(Cc5ccc(cc5)CCNC(=O)[C@]5(C)CCCN5C2=O)C(=O)CCC(=O)N[C@@H](C)C(=O)N[C@H](CNC(=O)COCCOCCNC(=O)COCCOCCNC(=O)CC[C@H](NC(=O)CC[C@H](NC(=O)CCOCCOCC[N+](C)(C)CCNC(=O)CCCCCCCCCCCCCCCCC(=O)O)C(=O)O)C(=O)O)C(=O)N[C@@H](Cc2cccc(c2)CNC(=O)CO4)C(=O)N3)cc1 [Ex-9]
Result: > 11.22

Ask: Output measured pKi for this item: COc1ccc(C[C@@H]2NC(=O)[C@H]([C@@H](C)O)NC(=O)[C@@H]3[C@@H]4CCN3C(=O)[C@@H]3Cc5cn(c6ccc(F)cc56)CCCCCCN(Cc5ccc(cc5)CCNC(=O)[C@]5(C)CCCN5C2=O)C(=O)CCC(=O)N[C@@H](C)C(=O)N[C@H](CNC(=O)CCCCC[N+](C)(C)CCNC(=O)COCCOCCNC(=O)CCCCCCCCCCCCCCCCC(=O)O)C(=O)N[C@@H](Cc2cccc(c2)CNC(=O)CO4)C(=O)N3)cc1 [Example 1]
Result: > 11.22

Ask: Output measured pKi for this item: COc1ccc(C[C@@H]2NC(=O)[C@H]([C@@H](C)O)NC(=O)[C@@H]3[C@@H]4CCN3C(=O)[C@@H]3Cc5cn(c6ccc(F)cc56)CCCCCCN(Cc5ccc(cc5)CCNC(=O)[C@]5(C)CCCN5C2=O)C(=O)CCC(=O)N[C@@H](C)C(=O)N[C@H](CNC(=O)CCCCC[N+](C)(C)CCNC(=O)COCCOCCNC(=O)COCCOCCNC(=O)CC[C@H](NC(=O)CCCCCCCCCCCCCCC(=O)O)C(=O)O)C(=O)N[C@@H](Cc2cccc(c2)CNC(=O)CO4)C(=O)N3)cc1 [Example 3]
Result: > 11.22

For every item in the list below, what is its measured pKi?
1. COc1ccc(C[C@@H]2NC(=O)[C@H]([C@@H](C)O)NC(=O)[C@@H]3[C@@H]4CCN3C(=O)[C@@H]3Cc5cn(c6ccc(F)cc56)CCCCCCN(Cc5ccc(cc5)CCNC(=O)[C@]5(C)CCCN5C2=O)C(=O)CCC(=O)N[C@@H](C)C(=O)N[C@H](CNC(=O)COCCOCCNC(=O)COCCOCCNC(=O)CC[C@H](NC(=O)CCCCC[N+](C)(C)CCNC(=O)CCCCCCCCCCCCCCCCC(=O)O)C(=O)O)C(=O)N[C@@H](Cc2cccc(c2)CNC(=O)CO4)C(=O)N3)cc1 [Ex-5]
2. COc1ccc(C[C@@H]2NC(=O)[C@H]([C@@H](C)O)NC(=O)[C@@H]3[C@@H]4CCN3C(=O)[C@@H]3Cc5cn(c6ccc(F)cc56)CCCCCN(Cc5ccc(cc5)CCNC(=O)[C@]5(C)CCCN5C2=O)C(=O)CCC(=O)N[C@@H](C)C(=O)N[C@H](CNC(=O)CCOCCOCC[N+](C)(C)CCNC(=O)COCCOCCNC(=O)COCCOCCNC(=O)CC[C@H](NC(=O)CC[C@H](NC(=O)CCCCCCCCCCCCCCCCC(=O)O)C(=O)O)C(=O)O)C(=O)N[C@@H](Cc2cccc(c2)CNC(=O)CO4)C(=O)N3)cc1 [Ex-51]

Result:
1: > 11.22; 2: 11.15
